# Species on record: Rattus norvegicus
# ASSAY PROCEDURE: Open TG-GATES - Regimen: Single
# Format: toxicity, organism-based, Sprague-Dawley
# Parameters: regimen Single, gender Male, age 6 weeks
# APPLIED CONDITIONS: in vivo, po, 0 mg/kg, 3 h, tissue Blood, route gavage, dose level Control
Could you please report measured RBC for the items listed next?
Please reply with the bare figure in x10_4/ul and do not write the unit itself.

Please report the recorded RBC for "O=C1NC(=O)C(c2ccccc2)(c2ccccc2)N1" .
646.8

Consider next the molecule S=C=Nc1cccc2ccccc12 [1-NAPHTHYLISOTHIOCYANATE] in the same way.
619.8

How about COc1ccc(Cl)cc1C(=O)NCCc1ccc(S(=O)(=O)NC(=O)NC2CCCCC2)cc1 [GLYBURIDE] ?
628.8

Would you mind doing "Cn1cnc([N+](=O)[O-])c1Sc1ncnc2nc[nH]c12" as well?
610.8

Proceed to CS(=O)(=O)Nc1ccc([N+](=O)[O-])cc1Oc1ccccc1 [NIMESULIDE]
640.8

----------
# Species on record: Rattus norvegicus
# ASSAY PROCEDURE: Open TG-GATES - Regimen: Daily Repeat
# Format: toxicity, organism-based, Sprague-Dawley
# Parameters: regimen Daily Repeat, gender Male, age 6 weeks
# APPLIED CONDITIONS: in vivo, po, 0 mg/kg, […], tissue Blood, route gavage, dose level Control, time 7 day
Task for the reader: assign each of the following molecules its reported Eos.
// return numeric value only (unit: %, not printed)

Quick one: Eos for Cn1cnc([N+](=O)[O-])c1Sc1ncnc2nc[nH]c12 [AZATHIOPRINE] ?
0.8

Could you do the same for Cc1cnc(NC(=O)C2=C(O)c3ccccc3S(=O)(=O)N2C)s1 [MELOXICAM] , please?
1

Same for COc1ccc(O)c(C(C)(C)C)c1.COc1ccc(O)cc1C(C)(C)C [BUTYLATED HYDROXYANISOLE]
0.8

Request: O=C1CN(/N=C/c2ccc(-c3ccc([N+](=O)[O-])cc3)o2)C(O)=N1 [DANTROLENE]
1

Next record, please: O=P1(N(CCCl)CCCl)NCCCO1 (stereo not given) [CYCLOPHOSPHAMIDE ANHYDROUS]
1

----------
# Species: Rattus norvegicus
# ASSAY PROCEDURE: Open TG-GATES - Regimen: Single
# Assay type: toxicity, organism-based, Sprague-Dawley
# Set-up: regimen Single, gender Male, age 6 weeks
# APPLIED CONDITIONS: in vivo, po, 0 mg/kg, 6 h, tissue Blood, route gavage, dose level Control
MEASURED METRIC: Ret (%)
// note: answer is a bare numeric in %

Query (compound): "O=C1CN(/N=C/c2ccc(-c3ccc([N+](=O)[O-])cc3)o2)C(O)=N1" ; field requested: Ret
13.2

What do we get for "Cc1cnc(NC(=O)C2=C(O)c3ccccc3S(=O)(=O)N2C)s1" ?
7.3

Now consider CNCCC(Oc1ccc(C(F)(F)F)cc1)c1ccccc1.Cl (stereo unspecified) [FLUOXETINE HYDROCHLORIDE] and answer again.
6.9

Request: S=C=Nc1cccc2ccccc12 [1-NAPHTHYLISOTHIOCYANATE]
7.2

Lookup "Cn1cnc([N+](=O)[O-])c1Sc1ncnc2nc[nH]c12"
9.5

One more compound: COc1ccc(O)c(C(C)(C)C)c1.COc1ccc(O)cc1C(C)(C)C [BUTYLATED HYDROXYANISOLE]
7.6

Cited source for all entries: ChEMBL document CHEMBL3885861
